Test system: NCI-H23;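 also: cell viability assay measuring growth inhibition of NCI-H23 cells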
assay_comment: cells
Assay type: functional, cell-based
details: Homo sapiens
Description: SANGER: Inhibition of human NCI-H23 cell growth in a cell viability assay.
attribute_measured: IC50

# count of solved cases: 4
CC(=O)c1c(C)c2cnc(Nc3ccc(N4CCNCC4)cn3)nc2n(C2CCCC2)c1=O : > 4000 nM
Cc1n[nH]c2ccc(-c3cncc(OC[C@@H](N)Cc4c[nH]c5ccccc45)c3)cc12 : > 1020 nM
Cn1c(=O)n(-c2ccc(C(C)(C)C#N)cc2)c2c3cc(-c4cnc5ccccc5c4)ccc3ncc21 : 219 nM
N#C/C(=C1/Nc2ccccc2S1)c1ccnc(NCCc2cccnc2)n1 : > 8000 nM

Prompt line: Recorded IC50 for C/C(O)=C(\C#N)C(=O)Nc1cc(Br)ccc1Br , please?
Response line: > 16000 nM
